Provide the reported Inhibition of each item.
Tested on: Plasmodium falciparum
assay.name: GSK_TCMDC: Inhibition of Plasmodium falciparum Dd2 in whole red blood cells, using parasite LDH activity as an index of growth. Test compounds present at 2uM
Type: functional
Supply the numeric figure in %, leaving out any unit text.

# input Look up Inhibition: `Cn1cnc2c(SCc3ccc(OCc4ccccc4)cc3)ncnc21`
# output 87

# input What would you report for O=C(NCCN1CCOCC1)c1csc(C2CCCN(C(=O)c3ccc(O)c(-c4cc(Cl)cc(Cl)c4)c3)C2)n1 (centres undefined) ?
# output 50

# input What would you report for `O=C(Nc1ccc(-c2cccc(-c3nc4cc(C(F)(F)F)ccc4[nH]3)c2)cc1)Nc1ccc(F)c(F)c1F` ?
# output 85

# input What would you report for `O=C(/C=C/c1ccc(C(F)(F)F)cc1)NCCCCCN1CCCN(C(=O)Nc2ccc(F)c(Cl)c2)CC1` ?
# output 33

# input What would you report for `O=C(NCCCCCN1CCC(c2c[nH]c3ccccc23)CC1)Nc1cccc(Br)c1` ?
# output 0

# input What would you report for `c1cncc(CNc2ncc(-c3ccsc3)c(-c3nccs3)n2)c1` ?
# output 63

# input What would you report for O=C(c1ccc(Br)o1)N1N=C(c2cccs2)CC1c1ccc(Br)cc1 (centres undefined) ?
# output 45

# input What would you report for COc1ccc2cc(C(=O)NC3CCC(CCN4CCc5cc(C#N)ccc5C4)CC3)[nH]c2c1.Cl (centres undefined) ?
# output 0

# input What would you report for O=C(c1ccc(F)cc1)N1CCOC(CCN2CCC(c3ccccc3)CC2)(c2ccc(Cl)c(Cl)c2)C1 (centres undefined) ?
# output 84

----------
Provide the reported Inhibition of each item.
Tested on: Plasmodium falciparum
assay.name: GSK_TCMDC: Inhibition of Plasmodium falciparum 3D7 in whole red blood cells, using parasite LDH activity as an index of growth. Test compounds present at 2uM
Type: functional
Supply the numeric figure in %, leaving out any unit text.

# input Request: Inhibition, test system Plasmodium falciparum, entry `COc1cc(CNCCCNc2nc(=O)c3sccc3[nH]2)c2[nH]cc(Cl)c2c1.CS(=O)(=O)O`
# output 96

# input What would you report for `CCN(CC)CCCNc1c2ccccc2nc2ccccc12.Cl` ?
# output 100

# input What would you report for COc1ccccc1C1CCN(C2CCC(NC(=O)/C=C/c3ccc4c(c3)OC(F)(F)O4)CC2)CC1 (stereo not given) ?
# output 98

# input What would you report for `O=C(Cn1c(CCc2cccc(F)c2F)cc(=O)c2cccnc21)N(CCN1CCCC1)Cc1ccc(-c2ccc(C(F)(F)F)cc2)cc1.O=C(O)C(O)C(O)C(=O)O` ?
# output 99

# input What would you report for `CC(C)C[C@H](NC(=O)OC(C)(C)C)C(=O)Nc1ccc(Cc2ccc(NC(=O)[C@H](CC(C)C)NC(=O)OC(C)(C)C)cc2)cc1` ?
# output 94

# input What would you report for `CCOC(=O)c1c[nH]c2c(ccc3ccccc32)c1=O` ?
# output 96

# input What would you report for `COC(=O)C1=CNC=C(C(=O)OC)C1c1ccc(Cl)c([N+](=O)[O-])c1` ?
# output 93

# input What would you report for `O=C(NC1CCCCC1)c1ccc(O)c(-c2cccc(C(F)(F)F)c2)c1` ?
# output 97

# input What would you report for `Nc1nc(N)c2c(ccc3ccccc32)n1` ?
# output 98

# input What would you report for Fc1ccc2[nH]c(-c3cccc(-c4cccc(CNCC5CCCO5)c4)c3)nc2c1.O=C(O)C(F)(F)F (stereo not given) ?
# output 99

----------
Test system: HepG2
assay.name: GSK_TCMDC: Percent inhibition of human HepG2 cell line. Test compounds present at 10uM.
Type: functional
Mark MET for reported Inhibition of 20% or greater; mark NOT MET for anything smaller.

# input Has `N#Cc1cccc(CN2CCCN(c3ccc(NC(=O)c4cccs4)cc3)CC2)c1.O=C(O)C(F)(F)F` a recorded Inhibition greater than or equal to 20%?
# output NOT MET

# input What would you report for `CN1CCCc2cc(NC(=O)c3cc(-c4ccc(Cl)cc4)cs3)ccc2C1.O=C(O)C(F)(F)F` ?
# output NOT MET

# input What would you report for `CNc1ccc(CNCc2cccc(-c3ccc(-c4nc5ccccc5[nH]4)cc3)c2)cc1.O=C(O)C(F)(F)F` ?
# output NOT MET

# input What would you report for `CS(=O)(=O)O.c1ccc2c(CNCCCCCCNCc3c(OCC4CC4)ccc4ccccc34)c(OCC3CC3)ccc2c1` ?
# output MET

# input What would you report for CCCCOP(=O)(COc1ccc(CCN(CC(O)COc2cccc3[nH]c4ccccc4c23)CC(O)COc2cccc3[nH]c4ccccc4c23)cc1)C1CCCCC1 (stereo not drawn) ?
# output NOT MET

# input What would you report for `N=C(/N=C(/NCCCCCCN/C(=N/C(=N)NCc1ccc(Cl)c(Cl)c1)N1CCCCC1)N1CCCCC1)NCc1ccc(Cl)c(Cl)c1` ?
# output NOT MET

----------
Tested on: HepG2
assay.name: GSK_TCMDC: Percent inhibition of human HepG2 cell line. Test compounds present at 10uM.
Assay type: functional
experimental.endpoint: Inhibition (%)
Supply the numeric figure in %, leaving out any unit text.

# input Look up Inhibition: `CC(=O)Nc1ccc(C(=O)NC2CCN(c3ccnc4cc(Cl)ccc34)CC2)cc1.O=C(O)C(F)(F)F`
# output 5

# input What would you report for `COc1cc2nc(N3CCC(CNC(=O)c4ccc(-c5ccc(-c6noc(C)n6)cc5C)cc4)CC3)nc(N)c2cc1OC` ?
# output 99

# input What would you report for `CCn1cc2c3c(cc(C(=O)N[C@@H](Cc4ccccc4)[C@H](O)CNCc4cccc(OC)c4)cc31)N(C)S(=O)(=O)CC2` ?
# output 0

# input What would you report for C[C@@H](NC(=O)NC(CCN1CCC2(CC1)CN(S(C)(=O)=O)c1ccccc12)c1ccc(Cl)c(Cl)c1)c1ccccc1 (some centres undefined) ?
# output 15

----------
Tested on: Plasmodium falciparum
assay.name: GSK_TCMDC: Inhibition of Plasmodium falciparum 3D7 in whole red blood cells, using parasite LDH activity as an index of growth. Test compounds present at 2uM
Format: functional
experimental.endpoint: Inhibition (%)
Supply the numeric figure in %, leaving out any unit text.

# input Look up Inhibition: `CNCc1cccc2nc(-c3csc(Cc4cc(Cl)ccc4OCC(C)C)n3)[nH]c12`
# output 100

# input What would you report for Cl.N#Cc1ccc2c(c1)CN(CCC1CCC(NC(=O)c3cc4cnccc4[nH]3)CC1)CC2 (stereo not drawn) ?
# output 97

# input What would you report for `O=C(Nc1cccc(-c2cccc(-c3nc4cc(F)ccc4[nH]3)c2)c1)c1ccncc1` ?
# output 92

# input What would you report for `COc1ccc2nccc([C@@H](O)CN3CCC(NC(=O)/C=C/c4ccc(Cl)c(C(F)(F)F)c4)CC3)c2c1` ?
# output 100

# input What would you report for `CCc1ccc(CN2CCC(CN(c3ccc(N4CCOCC4)c(F)c3)S(=O)(=O)c3ccc(C(C)(C)CC)cc3)CC2)cc1.Cl` ?
# output 93

# input What would you report for `Cc1cccc2nc(-c3cccc(-c4cccc(NC(=O)NCc5cccc(F)c5)c4)c3)[nH]c12` ?
# output 98

# input What would you report for COc1ccc(C2CCC(NCCCCNC(=O)c3ccc(NC(=O)c4ccc(Cl)cc4)cc3)CC2)cc1 (stereo not drawn) ?
# output 99

# input What would you report for `Cc1cc(N[C@@H](Cc2ccccc2)C(=O)NCc2cccc(F)c2)nc(NCCCOC(C)C)n1.O=C(O)C(F)(F)F` ?
# output 100

# input What would you report for `Cn1nc(-c2ccccc2F)c2cc(C(=O)Nc3cccnc3)sc21` ?
# output 92

# input What would you report for COc1ccc(Br)cc1/C=C/C(=O)Nc1cccc(C2CCCN(C)C2)c1.O=CO (stereo not drawn) ?
# output 99

# input What would you report for `CC1(C)N=C(N)N=C(N)N1OCCCCON1C(N)=NC(N)=NC1(C)C` ?
# output 97

# input What would you report for `Cc1cc(NCCCN2CCCC2=O)n2c(nc3ccccc32)c1C#N` ?
# output 93

# input What would you report for `CN1CCN(c2nsc3ccc(-c4ccc(OCCN5CCCC5)cc4)cc23)CC1.O=C(O)C(F)(F)F` ?
# output 100

# input What would you report for `COc1ccc(Nc2ncc3c(-c4cccc(NC(=O)c5ccc(N)cc5)c4)c[nH]c3n2)cc1OC` ?
# output 84

# input What would you report for `O=C(NC1CC1)c1ccc(Cn2c(SCc3cccc(Cl)c3)nc3ccccc3c2=O)cc1` ?
# output 90

# input What would you report for CC(CNC(=O)C(c1cc2ccccc2o1)N1CCN(C(c2ccccc2)c2ccccc2)CC1)c1ccccc1 (stereo not drawn) ?
# output 99

# input What would you report for `Clc1ccc2c(NN=Cc3cccs3)ccnc2c1` ?
# output 100

# input What would you report for `Cc1cc(CNCCCCCCNCc2ccc(-c3ccccc3)cc2)ccc1O` ?
# output 98

# input What would you report for `Cc1cnc(C(=O)Nc2cccc(-c3ccc(-c4nc5cc(F)ccc5[nH]4)cc3)c2)cn1` ?
# output 100

# input What would you report for `COc1ccc(CNCc2ccc(-c3ccc(-c4nc5cc(C(F)(F)F)ccc5[nH]4)s3)cc2)cc1.O=C(O)C(F)(F)F` ?
# output 100

# input What would you report for `CCc1ccc(-n2c(=O)c3cccnc3n2CC(=O)NC2CCCC2)cc1` ?
# output 98

# input What would you report for `O=C(N[C@@H](Cc1ccccc1)C(=O)NCCN1CCOCC1)c1ccc(O)c(-c2ccc(Cl)c(Cl)c2)c1` ?
# output 97

# input What would you report for `CC1CCN(Cc2c(O)ccc3c(O)c(-c4nc5ccccc5s4)c(=N)oc23)CC1` ?
# output 98

# input What would you report for `Cl.O=c1cc(NCCCNCc2ccc(Cl)c(Cl)c2)[nH]c2cc(Cl)ccc12` ?
# output 95

# input What would you report for CC(NC(C)c1cccc(Cl)c1)C(=O)Nc1cc(C(F)(F)F)ccc1N1CCOCC1 (stereo not drawn) ?
# output 89

# input What would you report for `Cc1cccc(-c2cc3cc(Nc4ccnc5cc(-c6nccs6)ccc45)ccc3[nH]2)c1.Cl` ?
# output 100

# input What would you report for CCCN(CCC)CC(O)COc1ccccc1C(=O)Nc1ccccc1 (stereo not drawn) ?
# output 92

# input What would you report for `COc1ccc(C=CC(=O)Nc2ccc(N3CCCC3)cc2)cc1.Cl` ?
# output 81

# input What would you report for `O=[N+]([O-])c1ccc2nc(Nc3cccc(C(F)(F)F)c3)c(Nc3cccc(C(F)(F)F)c3)nc2c1` ?
# output 100

# input What would you report for `O=C(Nc1cc(Cl)cc(Cl)c1)Nc1ccccc1C(=O)NC1CCCCC1` ?
# output 100

# input What would you report for `CNC(=O)CNC(=O)COc1cccc2ccccc12` ?
# output 98

# input What would you report for `O=c1[nH]nc(-c2ccc(N3CCCC3)c([N+](=O)[O-])c2)c2ccccc12` ?
# output 100

# input What would you report for `COc1cccc(CC(=O)N2CCC(n3c(C)nc4ccc(F)cc43)CC2)c1` ?
# output 100

# input What would you report for `Cl.c1ccc2c(NCCCCCCCNc3ccnc4ccccc34)ccnc2c1` ?
# output 100

# input What would you report for Nc1ccc2[nH]cc(C3CCN(CC4CCC(NC(=O)/C=C/c5ccccc5Cl)CC4)CC3)c2n1 (stereo not drawn) ?
# output 100

# input What would you report for `FC(F)(F)c1ccc2[nH]c(-c3ccc(-c4cccc(CNCCN5CCNCC5)c4)cc3)nc2c1.O=C(O)C(F)(F)F` ?
# output 92

# input What would you report for `CNC(=O)c1ccc2nc(C3CC3)n(CC3CCN(S(=O)(=O)c4cccc(Cl)c4)CC3)c2c1.O=C(O)C(F)(F)F` ?
# output 100

# input What would you report for Cc1cccc(Nc2nccc(NCC(O)c3ccc(C(F)(F)F)cc3)n2)c1 (stereo not drawn) ?
# output 100
